# Test system: HASMC (human aortic smooth muscle cells)
# experiment-description: MTS cell viability analysis, HASMC
# Format: cell-based
# condition: Homo sapiens, MTS, 24 h treatment
measured-parameter: EC50 (nM)
// return numeric value only (unit: nM, not printed)

### Prompt Consider the molecule CN1C(=O)C23SSC1(C)C(=O)N2C1Nc2ccccc2C1(C12c4ccccc4NC1N1C(=O)C4(C)SSC1(C(=O)N4C)C2O)C3O (stereo not shown) and give its measured EC50.
### Response 251
